System: HL-60(TB) leukemia
Experiment: NCI-60 one-dose screen, 48 h
Conditions: 10 µM unless noted
Protocol: Growth inhibition of the HL-60(TB) human tumor cell line is measured as a screen for anti-cancer activity. Cells are grown in 96 well plates and exposed to the test compound for 48 hours. Compounds are tested at a single concentration, which is 10^-5 M for most compounds. The reported endpoint is percent growth (GI% or GIPRCNT), where numbers from 0 - 100% represent growth inhibition, and numbers from -100% - 0 represent cell death. For example, a value of 40 represents 60% growth inhibition. […]
The panel holds about 83,000 compounds, 20% with a hit somewhere; the sample as a whole holds those more often. The source made the active and inactive calls. The calls were made as follows: active = growth percent below 10; inactive = the rest.
Labels: active, inactive

[
  {
    "Compound": "O=C1/C(=C\\c2ccc(Br)cc2)CN(C(=O)c2ccccc2F)C/C1=C\\c1ccc(Br)cc1",
    "Assigned Class": "inactive"
  },
  {
    "Compound": "FC(F)(F)c1[nH]ncc1-c1nc2ccc3[nH]ncc3c2c2c1CCCC2",
    "Assigned Class": "active"
  },
  {
    "Compound": "CC/C=C\\C/C=C\\C[C@H]1C/C=C2/C(=O)C=C[C@@H]2C/C=C\\CCC(=O)O1",
    "Assigned Class": "active"
  },
  {
    "Compound": "c1ccc(-c2c(-c3ccccc3)[n+](Cc3ccc4ccccc4c3)cn2Cc2ccc3ccccc3c2)cc1",
    "Assigned Class": "active"
  },
  {
    "Compound": "O=C1c2cccc(NCCN=Cc3cc(O)ccc3O)c2C(=O)c2c(NCCN=Cc3cc(O)ccc3O)cccc21",
    "Assigned Class": "active"
  },
  {
    "Compound": "CCCCCCN=C(N)CCCCCCCCCCC(N)=NCCCCCC",
    "Assigned Class": "inactive"
  },
  {
    "Compound": "CCC(C)C1NC(=O)C(NC(=O)c2c3nc4c(C(=O)NC5C(=O)NC(C(C)CC)C(=O)N6CCCC6C(=O)N(C)CC(=O)N(C)C(C(C)C)C(=O)OC5C)ccc(C)c4oc-3c(C)c(=O)c2N)C(C)OC(=O)C(C(C)C)N(C)C(=O)CN(C)C(=O)C2CCCN2C1=O (centres undefined)",
    "Assigned Class": "active"
  },
  {
    "Compound": "Cn1cc(-c2nn3cc(-c4cccs4)nc3s2)c2cc(F)ccc21",
    "Assigned Class": "active"
  },
  {
    "Compound": "O=C(N/N=C\\c1cccc([N+](=O)[O-])c1)N/N=C/c1cccc([N+](=O)[O-])c1",
    "Assigned Class": "inactive"
  },
  {
    "Compound": "CC(=O)OCc1cc(-c2nc3ccccc3[nH]c2=O)nn1-c1ccc(Cl)cc1",
    "Assigned Class": "inactive"
  },
  {
    "Compound": "O=C1C=CC2=C3c4cc(O)c(O)cc4CC3(O)COC2=C1O (centres undefined)",
    "Assigned Class": "inactive"
  },
  {
    "Compound": "O=C1CCCCN1CCCCC#Cc1ccccc1C#Cc1ccccn1",
    "Assigned Class": "inactive"
  },
  {
    "Compound": "O=C1c2c(c(=O)[nH]c3ccccc23)CCN1Cc1ccccc1",
    "Assigned Class": "inactive"
  },
  {
    "Compound": "COc1ccc(Nc2ncc(C#N)c(NCCCNC(=O)C3CCC3)n2)cc1",
    "Assigned Class": "inactive"
  },
  {
    "Compound": "CCOC(=O)C1=C(C)NC(=O)NC1c1cccs1 (centres undefined)",
    "Assigned Class": "inactive"
  },
  {
    "Compound": "COc1ccc(OC)c(/C=C/[C@H]2O[C@@H](C)[C@H](O)[C@@H]2O)c1",
    "Assigned Class": "inactive"
  },
  {
    "Compound": "O=C(N/N=C/c1c(Cl)cccc1Cl)c1ccc(C(F)(F)F)nc1Nc1cccc(C(F)(F)F)c1",
    "Assigned Class": "active"
  },
  {
    "Compound": "CCCCC(CC)COC(=O)C[N+](C)(C)CCOC(c1ccccc1)c1ccccc1 (centres undefined)",
    "Assigned Class": "active"
  },
  {
    "Compound": "O=c1nc(NO)[nH]c(=O)n1Cc1ccccc1",
    "Assigned Class": "inactive"
  }
]
